# targetEntity: Voltage-dependent L-type calcium channel subunit alpha-1C (Rattus norvegicus)
# Sequence (P22002 whole entry): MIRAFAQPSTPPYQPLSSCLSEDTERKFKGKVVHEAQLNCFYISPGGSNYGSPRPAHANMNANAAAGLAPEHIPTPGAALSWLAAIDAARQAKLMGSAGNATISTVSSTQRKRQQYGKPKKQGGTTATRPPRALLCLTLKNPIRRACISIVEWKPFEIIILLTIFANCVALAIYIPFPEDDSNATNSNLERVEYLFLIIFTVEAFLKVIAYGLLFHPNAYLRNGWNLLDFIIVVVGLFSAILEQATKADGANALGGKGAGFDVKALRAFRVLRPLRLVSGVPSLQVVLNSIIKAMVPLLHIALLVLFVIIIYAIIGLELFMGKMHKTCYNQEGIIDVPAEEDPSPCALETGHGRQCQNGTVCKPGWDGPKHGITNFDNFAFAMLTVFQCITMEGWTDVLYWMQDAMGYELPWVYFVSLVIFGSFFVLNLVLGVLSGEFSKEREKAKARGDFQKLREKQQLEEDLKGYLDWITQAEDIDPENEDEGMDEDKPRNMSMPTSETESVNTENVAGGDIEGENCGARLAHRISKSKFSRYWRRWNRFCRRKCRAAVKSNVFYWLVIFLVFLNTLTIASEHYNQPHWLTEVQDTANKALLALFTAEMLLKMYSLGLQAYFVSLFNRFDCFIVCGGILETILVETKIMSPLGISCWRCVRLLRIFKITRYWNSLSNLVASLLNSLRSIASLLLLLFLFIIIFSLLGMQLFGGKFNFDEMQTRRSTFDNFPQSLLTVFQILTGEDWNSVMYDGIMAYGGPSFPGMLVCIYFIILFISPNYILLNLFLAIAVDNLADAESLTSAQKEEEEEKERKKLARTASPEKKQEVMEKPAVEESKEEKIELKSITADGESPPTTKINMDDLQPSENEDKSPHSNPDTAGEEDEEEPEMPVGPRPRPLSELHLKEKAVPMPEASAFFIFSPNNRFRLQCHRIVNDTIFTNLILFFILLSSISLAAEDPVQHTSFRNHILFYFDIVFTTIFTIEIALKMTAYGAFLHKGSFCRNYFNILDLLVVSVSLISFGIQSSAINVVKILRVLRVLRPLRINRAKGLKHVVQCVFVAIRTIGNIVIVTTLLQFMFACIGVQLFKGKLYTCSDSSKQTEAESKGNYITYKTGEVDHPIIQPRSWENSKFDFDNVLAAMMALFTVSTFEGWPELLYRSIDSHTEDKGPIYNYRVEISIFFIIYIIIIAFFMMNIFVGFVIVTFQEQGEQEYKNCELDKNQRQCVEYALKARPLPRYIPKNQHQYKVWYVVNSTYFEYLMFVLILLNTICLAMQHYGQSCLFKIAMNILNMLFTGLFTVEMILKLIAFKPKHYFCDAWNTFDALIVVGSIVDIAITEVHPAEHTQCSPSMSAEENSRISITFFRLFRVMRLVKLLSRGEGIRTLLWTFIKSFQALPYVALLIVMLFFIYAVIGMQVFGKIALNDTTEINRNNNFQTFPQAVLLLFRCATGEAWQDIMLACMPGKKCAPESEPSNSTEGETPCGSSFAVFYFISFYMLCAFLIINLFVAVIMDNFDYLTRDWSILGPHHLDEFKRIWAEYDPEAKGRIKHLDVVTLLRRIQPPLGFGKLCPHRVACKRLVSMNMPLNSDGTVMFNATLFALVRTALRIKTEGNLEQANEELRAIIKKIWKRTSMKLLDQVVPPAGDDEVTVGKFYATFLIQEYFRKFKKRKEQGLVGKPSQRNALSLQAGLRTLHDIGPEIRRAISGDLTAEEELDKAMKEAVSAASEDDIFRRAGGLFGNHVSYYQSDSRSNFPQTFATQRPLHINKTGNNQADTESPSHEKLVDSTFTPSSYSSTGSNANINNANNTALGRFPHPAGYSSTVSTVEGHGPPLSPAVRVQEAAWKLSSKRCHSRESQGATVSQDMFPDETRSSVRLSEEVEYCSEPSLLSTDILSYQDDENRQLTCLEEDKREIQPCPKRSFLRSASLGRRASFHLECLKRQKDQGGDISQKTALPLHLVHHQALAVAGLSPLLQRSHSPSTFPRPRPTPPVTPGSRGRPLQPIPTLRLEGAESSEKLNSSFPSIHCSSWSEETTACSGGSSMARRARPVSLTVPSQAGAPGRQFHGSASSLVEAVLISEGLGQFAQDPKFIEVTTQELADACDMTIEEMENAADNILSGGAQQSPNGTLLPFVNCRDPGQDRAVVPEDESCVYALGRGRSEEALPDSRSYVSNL
# assaySummary: Displacement of [3H](+)-PN200-110 binding from calcium channels of rat cardiac membranes.
assayMetric: Ki (nM)

>>> observed("CCOC(=O)C1=C(C)N=C(C)/C(=C(/O)OCC)C1c1c(C)noc1CCc1cccc2ccccc12 (stereo not drawn)")
2.16
>>> observed("CCOC(=O)C1=C(C)N=C(C)/C(=C(/O)OCC)C1c1c(C)noc1CCc1ccc2ccccc2c1 (stereo not drawn)")
10.7
>>> observed("CCOC(=O)C1=C(C)N=C(C)/C(=C(/O)OCC)C1c1c(C)noc1CCc1ccccc1-c1ccccc1 (stereo not drawn)")
45.5
